For each entry below, report its self-aminoacylation value.
Test system: biotinyl-Met-oxazolone
Assay: self-aminoacylation, catalytic enhancement (BMO) (fold over background); higher = more active; k-Seq, kA / k0A0; sequences stand for … in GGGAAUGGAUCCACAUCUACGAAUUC…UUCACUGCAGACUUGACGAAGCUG
This sample holds only a part of the variants without activity.
Just the number, please.

[Q] Query (sequence): AAGUUUGCUAAUCGGCGCAAG [Fam3.1 aminoacylation ribozyme variant] ; field requested: self-aminoacylation
[A] 1.03

[Q] Query (sequence): CUACAUCAAACAAUCGCUCUG [Fam1A.1 aminoacylation ribozyme variant] ; field requested: self-aminoacylation
[A] 0.777

[Q] Query (sequence): AAGUUUGGUAAUAGUCGCCAG [Fam3.1 aminoacylation ribozyme variant] ; field requested: self-aminoacylation
[A] 1.1

[Q] Query (sequence): CUACUUCAAACAAUCGAACUG [Fam1A.1 aminoacylation ribozyme variant] ; field requested: self-aminoacylation
[A] 0.617

====

For each entry below, report its self-aminoacylation value.
System: biotinyl-Met-oxazolone
Assay: self-aminoacylation, catalytic enhancement (BMO) (fold over background); higher = more active; k-Seq, kA / k0A0; sequences stand for … in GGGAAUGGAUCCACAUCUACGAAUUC…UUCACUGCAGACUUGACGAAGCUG
Variants at the floor of the assay were thinned out.
Just the number, please.

[Q] Query (sequence): CCAGACUUCAAGCGAUCGGUC [Fam1B.1 aminoacylation ribozyme variant] ; field requested: self-aminoacylation
[A] 1.17

[Q] Query (sequence): AUUACCCUCGUCAUCGACUGA [Fam2.1 aminoacylation ribozyme variant] ; field requested: self-aminoacylation
[A] 0.868

[Q] Query (sequence): AAGUUUUCUAAUAGUCGCAUG [Fam3.1 aminoacylation ribozyme variant] ; field requested: self-aminoacylation
[A] 1.4

[Q] Query (sequence): ACGUUUCCUAAUAGUCGCAAG [Fam3.1 aminoacylation ribozyme variant] ; field requested: self-aminoacylation
[A] 1.33

[Q] Query (sequence): AUGUUUGCUAAGAGUCGCAAG [Fam3.1 aminoacylation ribozyme variant] ; field requested: self-aminoacylation
[A] 1.35

====

Tested on: biotinyl-Met-oxazolone
Test: self-aminoacylation, catalytic enhancement (BMO) (fold over background); higher = more active; k-Seq, kA / k0A0; sequences stand for … in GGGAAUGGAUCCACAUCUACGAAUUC…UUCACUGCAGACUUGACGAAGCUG
Fewer inactive variants are shown than the library holds.
EXPERIMENTAL_ENDPOINT: self-aminoacylation
Just the number, please.

[Q] Query (sequence): AAGUCUGCUAAUAGUCACAAG [Fam3.1 aminoacylation ribozyme variant] ; field requested: self-aminoacylation
[A] 1.95

[Q] Query (sequence): AUUACCGUCGUCAUCGAGUGA [Fam2.1 aminoacylation ribozyme variant] ; field requested: self-aminoacylation
[A] 3.23

[Q] Query (sequence): CCACACUUCACGGAAUCGGUC [Fam1B.1 aminoacylation ribozyme variant] ; field requested: self-aminoacylation
[A] 1.14

[Q] Query (sequence): UGUCACCUAGGUCAUCGGGUG [Fam2.2 aminoacylation ribozyme variant] ; field requested: self-aminoacylation
[A] 4.27

[Q] Query (sequence): AAUCACCUAGGUCAUCGGGUU [Fam2.2 aminoacylation ribozyme variant] ; field requested: self-aminoacylation
[A] 5.39

[Q] Query (sequence): CUACUUGAAACAAUCGUUCUG [Fam1A.1 aminoacylation ribozyme variant] ; field requested: self-aminoacylation
[A] 0.614

[Q] Query (sequence): CUACUGCAAACAAUCGGUCUC [Fam1A.1 aminoacylation ribozyme variant] ; field requested: self-aminoacylation
[A] 0.916

[Q] Query (sequence): AUUGCCCUAGGUCAUCGGGUG [Fam2.2 aminoacylation ribozyme variant] ; field requested: self-aminoacylation
[A] 8.34

[Q] Query (sequence): AUUACCCAGGUCAUCGAGGGA [Fam2.1 aminoacylation ribozyme variant] ; field requested: self-aminoacylation
[A] 1.38
